Here the recorded IC50 is given for each entry.
- Test system: ACHN
- testDetails: NCI-60 cell line panel: ACHN
- Assay type: cell-based
- conditionInfo: Homo sapiens, Renal Cancer

compound	IC50
CCN1CCN(c2ccc(NC(=O)Nc3ccc(-c4cc(C(=O)NC(C)C)c5ncccc5n4)cc3)cc2C(F)(F)F)CC1 [Compound 13f]	1.02 µM
CNC(=O)c1cc(-c2ccc(NC(=O)Nc3ccc(N4CCN(C)CC4)c(C(F)(F)F)c3)cc2)nc2cccnc12 [Compound 13b]	15.5 µM
CCN1CCN(c2ccc(NC(=O)Nc3ccc(-c4cc(C(=O)NC)c5ncccc5n4)cc3)cc2C(F)(F)F)CC1 [Compound 13c]	2.39 µM
CC(C)NC(=O)c1cc(-c2ccc(NC(=O)Nc3ccc(N4CCN(C)CC4)c(C(F)(F)F)c3)cc2)nc2cccnc12 [Compound 13e]	0.64 µM

----------
- System: OVCAR-8
- testDetails: NCI-60 cell line panel: OVCAR-8
- Type: cell-based
- conditionInfo: Ovarian Cancer, total growth inhibition, in µM (unit assumed)
Here the recorded TGI is given for each entry.

compound	TGI
CC(C)NC(=O)c1cc(-c2ccc(NC(=O)Nc3ccc(N4CCN(C)CC4)c(C(F)(F)F)c3)cc2)nc2cccnc12 [Compound 13e]	1.95
CNC(=O)c1cc(Oc2ccc(NC(=O)Nc3ccc(Cl)c(C(F)(F)F)c3)cc2)ccn1 [Sorafenib, reference compound]	12.59
CCN1CCN(c2ccc(NC(=O)Nc3ccc(-c4cc(C(=O)NC(C)C)c5ncccc5n4)cc3)cc2C(F)(F)F)CC1 [Compound 13f]	17.5
CCN1CCN(c2ccc(NC(=O)Nc3ccc(-c4cc(C(=O)NC)c5ncccc5n4)cc3)cc2C(F)(F)F)CC1 [Compound 13c]	10.50
CNC(=O)c1cc(-c2ccc(NC(=O)Nc3ccc(N4CCN(C)CC4)c(C(F)(F)F)c3)cc2)nc2cccnc12 [Compound 13b]	35.4

----------
Endpoint: pIC50. System: PDGFRα (Homo sapiens). Items follow.
Sequence (P16234 24-1089): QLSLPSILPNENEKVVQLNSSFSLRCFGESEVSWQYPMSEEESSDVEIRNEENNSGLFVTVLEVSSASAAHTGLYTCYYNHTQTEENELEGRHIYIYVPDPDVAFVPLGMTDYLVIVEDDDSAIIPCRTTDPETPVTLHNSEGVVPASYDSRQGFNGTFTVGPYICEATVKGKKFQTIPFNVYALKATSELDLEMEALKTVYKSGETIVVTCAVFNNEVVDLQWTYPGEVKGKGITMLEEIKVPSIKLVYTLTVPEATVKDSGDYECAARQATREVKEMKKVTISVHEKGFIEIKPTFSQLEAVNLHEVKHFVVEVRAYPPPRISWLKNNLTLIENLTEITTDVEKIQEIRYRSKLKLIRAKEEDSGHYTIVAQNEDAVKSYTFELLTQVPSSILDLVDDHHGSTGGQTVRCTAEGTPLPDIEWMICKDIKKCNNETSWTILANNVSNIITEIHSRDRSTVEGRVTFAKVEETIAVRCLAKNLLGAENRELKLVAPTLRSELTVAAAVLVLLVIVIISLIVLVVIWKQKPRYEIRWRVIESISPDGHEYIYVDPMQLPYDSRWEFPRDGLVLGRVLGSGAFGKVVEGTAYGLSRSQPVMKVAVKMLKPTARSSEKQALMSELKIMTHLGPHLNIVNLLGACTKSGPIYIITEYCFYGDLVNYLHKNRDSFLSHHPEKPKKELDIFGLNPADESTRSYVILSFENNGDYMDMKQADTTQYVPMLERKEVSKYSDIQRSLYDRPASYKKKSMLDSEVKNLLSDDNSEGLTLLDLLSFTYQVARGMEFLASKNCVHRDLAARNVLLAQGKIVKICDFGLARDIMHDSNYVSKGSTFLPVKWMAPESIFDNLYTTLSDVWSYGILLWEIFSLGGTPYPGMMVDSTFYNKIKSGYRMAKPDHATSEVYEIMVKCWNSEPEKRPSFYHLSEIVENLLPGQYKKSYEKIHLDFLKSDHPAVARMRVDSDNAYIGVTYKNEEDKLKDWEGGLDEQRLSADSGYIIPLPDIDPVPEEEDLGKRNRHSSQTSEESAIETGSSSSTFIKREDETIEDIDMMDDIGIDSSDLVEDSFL
pIC50: −log10 of the molar value.

molecule	pIC50
CNC(=O)c1cc(-c2ccc(NC(=O)Nc3ccc(N4CCN(C)CC4)c(C(F)(F)F)c3)cc2)nc2cccnc12 [Compound 13b]	6.01
CCN1CCN(c2ccc(NC(=O)Nc3ccc(-c4cc(C(=O)NC)c5ncccc5n4)cc3)cc2C(F)(F)F)CC1 [Compound 13c]	6.00

----------
Here the recorded log10 TGI is given for each entry.
- Test system: ACHN
- testDetails: NCI-60 cell line panel: ACHN
- Assay type: cell-based
- conditionInfo: Renal Cancer, total growth inhibition
testReadout: log10 TGI (log10 of the value in µM)

molecule	testSystem	log10 TGI
CNC(=O)c1cc(-c2ccc(NC(=O)Nc3ccc(N4CCN(C)CC4)c(C(F)(F)F)c3)cc2)nc2cccnc12 [Compound 13b]	ACHN	1.46
CCN1CCN(c2ccc(NC(=O)Nc3ccc(-c4cc(C(=O)NC(C)C)c5ncccc5n4)cc3)cc2C(F)(F)F)CC1 [Compound 13f]	ACHN	0.54
CC(C)NC(=O)c1cc(-c2ccc(NC(=O)Nc3ccc(N4CCN(C)CC4)c(C(F)(F)F)c3)cc2)nc2cccnc12 [Compound 13e]	ACHN	0.07
CCN1CCN(c2ccc(NC(=O)Nc3ccc(-c4cc(C(=O)NC)c5ncccc5n4)cc3)cc2C(F)(F)F)CC1 [Compound 13c]	ACHN	0.67
CNC(=O)c1cc(Oc2ccc(NC(=O)Nc3ccc(Cl)c(C(F)(F)F)c3)cc2)ccn1 [Sorafenib, reference compound]	ACHN	1.00
